Test system: DU-145
Assay: Antiproliferative activity against human DU-145 cells assessed as reduction in cell viability incubated for 24 hrs by Celltiter-Glo assay
Settings: DU-145, 24 h
measurement-kind: IC50 (µM)
Give a bare numeral; the unit µM is implied.

Memo: "COC(C)(C)CCC[C@](C)(O)[C@H]1CC[C@]2(C)[C@@H]1[C@H](O)C[C@@H]1[C@@]3(C)CC[C@H](O)C(C)(C)[C@@H]3CC[C@]12C" , reported IC50: 7.6

Kindly consider the entry below.
Memo: C=C1C(=O)O[C@H]2C[C@H](C)[C@@]34C[C@]5(C(=O)OC6CC(C)=C([C@H](C)CCCOC(C)=O)[C@@H](O)C65)[C@@H](C(C)=C3C[C@H]12)C4OC(C)=O (some centres not stated) , reported IC50: 4
